tested on: NCI-H23 lung; test: NCI tumour cell line growth inhibition, 48 h
This section presents compounds with their documented GI50 values.

Here's what some known entries look like.
INSERT INTO assay_data (mol, result) VALUES
  ('COc1ccc(CN2c3ccccc3CCc3ccccc32)cc1F', '672 nM'),
  ('COc1ccc(-c2cn[nH]c2-c2cc(OC)c3c(c2)OCCO3)cc1', '599 nM'),
  ('N.N.N.N.N.N.O=N[O-].[Br-].[Co+3].[Co+3].[OH3+].[OH3+]', '> 100000 nM');

Ask: Requested field: GI50. Item: "O=C([CH-]C(=O)C(F)(F)F)c1ccccc1.O=C([CH-]C(=O)C(F)(F)F)c1ccccc1.O=C([CH-]C(=O)C(F)(F)F)c1ccccc1.O=C([CH-]C(=O)C(F)(F)F)c1ccccc1.[Eu+3].c1ccncc1"
Result: 3700 nM

----------
test system: OVCAR-5 ovarian; test: NCI tumour cell line growth inhibition, 48 h
measured_parameter: TGI

Here's what some known entries look like.
INSERT INTO assay_data (molecule, system_tested, measured_parameter, result) VALUES
  ('O=C([CH-]C(=O)C(F)(F)F)c1ccccc1.O=C([CH-]C(=O)C(F)(F)F)c1ccccc1.O=C([CH-]C(=O)C(F)(F)F)c1ccccc1.O=C([CH-]C(=O)C(F)(F)F)c1ccccc1.[Eu+3].c1ccncc1', 'OVCAR-5 ovarian', 'TGI', '> 100 µM'),
  ('Cc1c(Cl)cccc1NC(=O)CC1C(=O)Nc2ccccc2S1(=O)=O (centres undefined)', 'OVCAR-5 ovarian', 'TGI', '41.5 µM'),
  ('Oc1ccc(CCc2cc(O)cc(O)c2)cc1', 'OVCAR-5 ovarian', 'TGI', '> 100 µM');

# context switch: different molecule, same TGI
Ask: Requested field: TGI. Item: "COc1cccc(-c2cc(=O)c3ccc(C)nc3[nH]2)c1"
Result: > 100 µM

----------
test system: A549 NSCLC; test: NCI tumour cell line growth inhibition, 48 h
This section presents compounds with their documented TGI values.

Here's what some known entries look like.
INSERT INTO measurements (compound, system_tested, result) VALUES
  ('CC(C)OP(=O)(OC(C)C)C(C(C)C)N(C)/C(F)=N/C(F)(F)F (stereo unspecified)', 'A549 NSCLC', '> 100 µM'),
  ('CCCCCCN(CCCCCC)CC(O)c1ccc2c3c(cccc13)CC2 (stereo unspecified)', 'A549 NSCLC', '24 µM'),
  ('O=C(CNc1ccc(Cl)cc1Cl)NC1C=Cc2ccc(S(=O)(=O)Nc3ccc(Cl)cc3Cl)cc2C1=O (stereo unspecified)', 'A549 NSCLC', '> 100 µM'),
  ('COC(=O)[C@@]12CCCC(=O)[C@@H]1[C@H]1CCCC[C@H]12', 'A549 NSCLC', '> 100 µM');

Ask: Requested field: TGI. Item: "CC(=O)c1cc2c(s1)C(=O)c1ccccc1C2=O"
Result: 14.6 µM

Ask: Proceed to CCOc1cc(C2CC(c3ccc(NS(=O)(=O)c4cc([N+](=O)[O-])ccc4C)cc3)=NN2)ccc1O (stereo unspecified)
Result: > 100 µM

Ask: Proceed to "CC(C)(C)NC(=O)[C@H]1C[C@H]2CCCC[C@H]2CN1C[C@@H](O)[C@H](Cc1ccccc1)NC(=O)[C@H](CC(N)=O)NC(=O)c1ccc2ccccc2n1"
Result: 31 µM

Ask: Proceed to "Cc1nc(C(N)=S)sc1C(=O)C/C(=N/N)C(=O)Nc1cccc(Cl)c1C"
Result: > 100 µM

Ask: Proceed to Cc1c(Cl)cccc1NC(=O)CC1C(=O)Nc2ccccc2S1(=O)=O (stereo unspecified)
Result: 33.2 µM

Ask: Proceed to "Cc1ccc(S(=O)(=O)c2c(O)c3ccccc3n(C)c2=O)cc1"
Result: > 100 µM
